assay.overview: Absorption and emission maxima (spectral properties)
Assay type: physicochemical
assay.context: Water
Would you mind telling me the reported λ(fl) [nm] of each entry?
Numbers only, in nm.

CCOC(=O)c1c(C)nn2c(=O)c3cccc4c5c(cc(c43)c12)C[N+](C)(C)CN5C.[Cl-]
600

Batch: λ(fl) [nm] for all items listed.
1. CN1C[N+](C)(C)Cc2c1ccc1cc3ccccc3cc21
2. CN1C[N+](C)(C)Cc2cc3c4c(cccc4c21)C(=O)N(c1ccc(C(=O)O)cc1)C3=O.[Cl-]
3. CN1C[N+](C)(C)Cc2c1cc1c3c(cccc23)C(=O)N(c2ccccc2)C1=O
4. CN1C[N+](C)(C)Cc2cc3c4c(cccc4c21)C(=O)N(c1ccc(C(=O)ON2C(=O)CCC2=O)cc1)C3=O
5. CN1C[N+](C)(C)Cc2cc3c4c(cccc4c21)C(=O)N(c1ccccc1)C3=O.[Cl-]

Given back:
1: 481; 2: 515; 3: 545; 4: 518; 5: 515

====

assay.overview: Fluorescence quantum yield (QY)
Type: physicochemical
assay.context: Ethanol (Table 1)
assay.metric: (QY [%])

Consider the worked cases shown below.
CCOC(=O)c1c(C)nn2c(=O)c3cccc4c5c(cc(c43)c12)C[N+](C)(C)CN5C.[Cl-]
44%
CN1C[N+](C)(C)Cc2c1cc1c3c(cccc23)C(=O)N(c2ccccc2)C1=O
51%
CN1C[N+](C)(C)Cc2c1ccc1cc3ccccc3cc21
30%

Below: the item to evaluate.
Asked: What does the record list as (QY [%]) for CN1C[N+](C)(C)Cc2cc3c4c(cccc4c21)C(=O)N(c1ccccc1)C3=O.[Cl-] ?
Given back: 58%

====

assay.overview: Fluorescence (luminescent) lifetime of dyes and conjugates
Type: physicochemical
assay.context: Ethanol (Table 1)
assay.metric: Lifetime [ns]

Consider the worked cases shown below.
CN1C[N+](C)(C)Cc2cc3c4c(cccc4c21)C(=O)N(c1ccc(C(=O)ON2C(=O)CCC2=O)cc1)C3=O
8.0 ns
CN1C[N+](C)(C)Cc2cc3c4c(cccc4c21)C(=O)N(c1ccccc1)C3=O.[Cl-]
8.5 ns
CCOC(=O)c1c(C)nn2c(=O)c3cccc4c5c(cc(c43)c12)C[N+](C)(C)CN5C.[Cl-]
7.8 ns

Below: the item to evaluate.
Asked: What does the record list as Lifetime [ns] for CN1C[N+](C)(C)Cc2c1cc1c3c(cccc23)C(=O)N(c2ccccc2)C1=O ?
Given back: 23.3 ns

====

assay.overview: Absorption and emission maxima (spectral properties)
Type: physicochemical
assay.context: Water
assay.metric: λ(abs) [nm] (nm)
Answers are plain numbers, in nm.

Consider the worked cases shown below.
CCOC(=O)c1c(C)nn2c(=O)c3cccc4c5c(cc(c43)c12)C[N+](C)(C)CN5C.[Cl-]
449
CN1C[N+](C)(C)Cc2c1cc1c3c(cccc23)C(=O)N(c2ccccc2)C1=O
426
CN1C[N+](C)(C)Cc2c1ccc1cc3ccccc3cc21
398
CN1C[N+](C)(C)Cc2cc3c4c(cccc4c21)C(=O)N(c1ccccc1)C3=O.[Cl-]
405
CN1C[N+](C)(C)Cc2cc3c4c(cccc4c21)C(=O)N(c1ccc(C(=O)O)cc1)C3=O.[Cl-]
405

Below: the item to evaluate.
Asked: What does the record list as λ(abs) [nm] for CN1C[N+](C)(C)Cc2cc3c4c(cccc4c21)C(=O)N(c1ccc(C(=O)ON2C(=O)CCC2=O)cc1)C3=O ?
Given back: 404

====

assay.overview: Fluorescence quantum yield (QY)
Type: physicochemical
assay.context: Water (Table 1)
assay.metric: (QY [%]) (%)
Give bare numbers, in %.

CN1C[N+](C)(C)Cc2cc3c4c(cccc4c21)C(=O)N(c1ccc(C(=O)O)cc1)C3=O.[Cl-]
72
CCOC(=O)c1c(C)nn2c(=O)c3cccc4c5c(cc(c43)c12)C[N+](C)(C)CN5C.[Cl-]
7
CN1C[N+](C)(C)Cc2cc3c4c(cccc4c21)C(=O)N(c1ccccc1)C3=O.[Cl-]
72

Below: the item to evaluate.
Asked: What does the record list as (QY [%]) for CN1C[N+](C)(C)Cc2c1ccc1cc3ccccc3cc21 ?
Given back: 40

====

assay.overview: Absorption and emission maxima (spectral properties)
Assay type: physicochemical
assay.context: Ethanol
Would you mind telling me the reported λ(fl) [nm] of each entry?
Answer shape: numeric part, then the unit.

Consider the worked cases shown below.
CN1C[N+](C)(C)Cc2c1ccc1cc3ccccc3cc21 [Dye 13]
462 nm
CN1C[N+](C)(C)Cc2cc3c4c(cccc4c21)C(=O)N(c1ccccc1)C3=O.[Cl-] [Dye 5]
498 nm
CN1C[N+](C)(C)Cc2c1cc1c3c(cccc23)C(=O)N(c2ccccc2)C1=O [Dye 6]
513 nm
CN1C[N+](C)(C)Cc2cc3c4c(cccc4c21)C(=O)N(c1ccc(C(=O)ON2C(=O)CCC2=O)cc1)C3=O [Dye 3-NHS]
500 nm

Below: the item to evaluate.
Asked: What does the record list as λ(fl) [nm] for CCOC(=O)c1c(C)nn2c(=O)c3cccc4c5c(cc(c43)c12)C[N+](C)(C)CN5C.[Cl-] [Dye 8] ?
Given back: 584 nm

====

assay.overview: Fluorescence (luminescent) lifetime of dyes and conjugates
Type: physicochemical
assay.context: Water (Table 1)
assay.metric: Lifetime [ns] (ns)
Give bare numbers, in ns.

Consider the worked cases shown below.
CN1C[N+](C)(C)Cc2cc3c4c(cccc4c21)C(=O)N(c1ccc(C(=O)O)cc1)C3=O.[Cl-] [Dye 3a]
9.4
CCOC(=O)c1c(C)nn2c(=O)c3cccc4c5c(cc(c43)c12)C[N+](C)(C)CN5C.[Cl-] [Dye 8]
5.7
CN1C[N+](C)(C)Cc2cc3c4c(cccc4c21)C(=O)N(c1ccc(C(=O)ON2C(=O)CCC2=O)cc1)C3=O [Dye 3-NHS]
9.3
CN1C[N+](C)(C)Cc2c1ccc1cc3ccccc3cc21 [Dye 13]
20.9
CN1C[N+](C)(C)Cc2cc3c4c(cccc4c21)C(=O)N(c1ccccc1)C3=O.[Cl-] [Dye 5]
9.4

Below: the item to evaluate.
Asked: What does the record list as Lifetime [ns] for CN1C[N+](C)(C)Cc2c1cc1c3c(cccc23)C(=O)N(c2ccccc2)C1=O [Dye 6] ?
Given back: 22.9

====

assay.overview: Absorption and emission maxima (spectral properties)
Format: physicochemical
assay.context: Ethanol
assay.metric: λ(abs) [nm]

Consider the worked cases shown below.
CN1C[N+](C)(C)Cc2cc3c4c(cccc4c21)C(=O)N(c1ccc(C(=O)ON2C(=O)CCC2=O)cc1)C3=O
390 nm
CN1C[N+](C)(C)Cc2c1ccc1cc3ccccc3cc21
395 nm
CCOC(=O)c1c(C)nn2c(=O)c3cccc4c5c(cc(c43)c12)C[N+](C)(C)CN5C.[Cl-]
436 nm
CN1C[N+](C)(C)Cc2c1cc1c3c(cccc23)C(=O)N(c2ccccc2)C1=O
414 nm

Below: the item to evaluate.
Asked: What does the record list as λ(abs) [nm] for CN1C[N+](C)(C)Cc2cc3c4c(cccc4c21)C(=O)N(c1ccccc1)C3=O.[Cl-] ?
Given back: 393 nm
